Test system: CCRIS mutagenicity, Ames/micronucleus/aberration tests
Assay: CCRIS mutagenicity studies
Settings: Test System: UDS RODENT HEPATOCYTES; Strain/Indicator: THY INCORP (NON-S-PHASE); Metabolic Activation: NONE; Method: AUTORADIOGRAPHY
Activity calls are given as the source filed them. How the calls were made is not given here.
Outcomes: True = active, False = inactive

# COMPOUND, CATEGORY_LABEL
records = [
    ("Nc1ccccc1Cl", "False"),
    ("Cc1cccc2cccnc12", "True"),
    ("Nc1ccc([N+](=O)[O-])cc1[N+](=O)[O-]", "False"),
    ("O=C(O)C(F)(F)C(F)(Cl)C(F)(F)C(F)(Cl)C(F)(F)C(F)(Cl)C(F)(F)Cl (configuration not stated)", "False"),
    ("Nc1cccc(N)c1", "False"),
    ("Cc1cc(O)c2c(c1)C(=O)c1cc(O)cc(O)c1C2=O", "True"),
    ("Nc1c(Cl)cc(Cl)cc1Cl", "False"),
]

---

Test system: CCRIS mutagenicity, Ames/micronucleus/aberration tests
Assay: CCRIS mutagenicity studies
Conditions: Test System: AMES SALMONELLA TYPHIMURIUM; Strain/Indicator: TA100; Metabolic Activation: NONE; Method: PREINCUBATION
Active and inactive are the calls of the source. No rule for the calls is given here.
Outcomes: 1.0 = active, 0.0 = inactive

# COMPOUND, SUBJECT_OF_TEST, CATEGORY_LABEL
data = [
    ("O=[N+]([O-])c1cccc(CO)c1", "CCRIS mutagenicity, Ames/micronucleus/aberration tests", 0.0),
    ("CC(O)CN(CC(C)O)CC(C)O (centres undefined)", "CCRIS mutagenicity, Ames/micronucleus/aberration tests", 0.0),
    ("CCCCCCCCC1OC1CCCCCCCC(=O)OCC(CC)CCCC (centres undefined)", "CCRIS mutagenicity, Ames/micronucleus/aberration tests", 0.0),
    ("Clc1cccc2ccccc12", "CCRIS mutagenicity, Ames/micronucleus/aberration tests", 0.0),
    ("C[C@@H](O)[C@H]1C(=O)N2C(C(=O)O)=C([C@H]3CCCO3)S[C@H]12", "CCRIS mutagenicity, Ames/micronucleus/aberration tests", 0.0),
    ("CC(=O)Oc1ccc2c(CBr)cc(=O)oc2c1", "CCRIS mutagenicity, Ames/micronucleus/aberration tests", 0.0),
    ("C1CN(SSN2CCOCC2)CCO1", "CCRIS mutagenicity, Ames/micronucleus/aberration tests", 0.0),
    ("CCCCCCCCBr", "CCRIS mutagenicity, Ames/micronucleus/aberration tests", 0.0),
    ("Cc1cc(-c2ccc(N)c(C)c2)ccc1N", "CCRIS mutagenicity, Ames/micronucleus/aberration tests", 0.0),
    ("COc1ccc(N)cc1", "CCRIS mutagenicity, Ames/micronucleus/aberration tests", 0.0),
    ("CCNNCC", "CCRIS mutagenicity, Ames/micronucleus/aberration tests", 0.0),
    ("O=CCC=O", "CCRIS mutagenicity, Ames/micronucleus/aberration tests", 0.0),
    ("Clc1ccc(CC2CO2)cc1 (centres undefined)", "CCRIS mutagenicity, Ames/micronucleus/aberration tests", 1.0),
    ("N#CC1=C(C#N)C(=O)C(Cl)=C(Cl)C1=O", "CCRIS mutagenicity, Ames/micronucleus/aberration tests", 0.0),
    ("CC(C)(C)S(=O)(=O)C[C@@H](Cc1ccccc1)C(=O)N[C@@H](Cc1cnc[nH]1)C(=O)N[C@@H](CC1CCCCC1)[C@@H](O)[C@@H](O)C1CC1", "CCRIS mutagenicity, Ames/micronucleus/aberration tests", 0.0),
    ("CC(C)CCCCCOC(=O)C[S][Sn]([CH3])([S]CC(=O)OCCCCCC(C)C)[S]CC(=O)OCCCCCC(C)C", "CCRIS mutagenicity, Ames/micronucleus/aberration tests", 0.0),
    ("C[Si](C)(Cl)Cl", "CCRIS mutagenicity, Ames/micronucleus/aberration tests", 0.0),
    ("O=C(O)C(=O)O", "CCRIS mutagenicity, Ames/micronucleus/aberration tests", 0.0),
    ("Oc1ccc(Cl)c(Cl)c1Cl", "CCRIS mutagenicity, Ames/micronucleus/aberration tests", 0.0),
    ("O=O", "CCRIS mutagenicity, Ames/micronucleus/aberration tests", 0.0),
    ("COC(=O)C(c1ccccc1)C1CCCCN1 (centres undefined)", "CCRIS mutagenicity, Ames/micronucleus/aberration tests", 0.0),
    ("C[C-](C)[N+](=O)[O-]", "CCRIS mutagenicity, Ames/micronucleus/aberration tests", 1.0),
    ("O=CC(Br)CBr (centres undefined)", "CCRIS mutagenicity, Ames/micronucleus/aberration tests", 1.0),
    ("O=C(O)c1ccccc1C(=O)O", "CCRIS mutagenicity, Ames/micronucleus/aberration tests", 0.0),
    ("O=C=Nc1ccc(Cc2ccc(N=C=O)cc2)cc1", "CCRIS mutagenicity, Ames/micronucleus/aberration tests", 0.0),
    ("CCCCCCCC(=O)CCc1ccc(O)c(OC)c1", "CCRIS mutagenicity, Ames/micronucleus/aberration tests", 0.0),
    ("CCOP(=O)(NC(C)C)Oc1ccc(SC)c(C)c1 (centres undefined)", "CCRIS mutagenicity, Ames/micronucleus/aberration tests", 0.0),
    ("ClCCCl", "CCRIS mutagenicity, Ames/micronucleus/aberration tests", 0.0),
    ("C=CCOCC1CO1 (centres undefined)", "CCRIS mutagenicity, Ames/micronucleus/aberration tests", 1.0),
    ("Clc1nncc2cnccc12", "CCRIS mutagenicity, Ames/micronucleus/aberration tests", 0.0),
    ("Cc1ccc(C)c(N)c1", "CCRIS mutagenicity, Ames/micronucleus/aberration tests", 0.0),
    ("F[B-](F)(F)F", "CCRIS mutagenicity, Ames/micronucleus/aberration tests", 0.0),
    ("O=[N+]([O-])c1ccc2c3c1ccc1cccc(c13)[C@@H](O)[C@@H]2O", "CCRIS mutagenicity, Ames/micronucleus/aberration tests", 1.0),
    ("CCCCCCCCCCC1CO1 (centres undefined)", "CCRIS mutagenicity, Ames/micronucleus/aberration tests", 0.0),
    ("Cc1cc(=O)oc2ccc3c(c12)C1(C)OOC1(C)O3 (centres undefined)", "CCRIS mutagenicity, Ames/micronucleus/aberration tests", 1.0),
    ("O=[N+]([O-])c1ccc(CNc2ncnc3c2ncn3[C@@H]2O[C@H](CO)[C@@H](O)[C@H]2O)cc1", "CCRIS mutagenicity, Ames/micronucleus/aberration tests", 0.0),
    ("CCOC(=O)CBr", "CCRIS mutagenicity, Ames/micronucleus/aberration tests", 0.0),
    ("CC(O)CNCC(C)O (centres undefined)", "CCRIS mutagenicity, Ames/micronucleus/aberration tests", 0.0),
    ("O=S(=O)(O)c1cc(S(=O)(=O)O)c2c(N=Nc3ccccc3)c(O)ccc2c1", "CCRIS mutagenicity, Ames/micronucleus/aberration tests", 0.0),
    ("CC1(C(Cl)Cl)C2[C@@H](Cl)[C@H](Cl)C1(C(Cl)Cl)[C@@H](Cl)[C@@H]2Cl (some centres undefined)", "CCRIS mutagenicity, Ames/micronucleus/aberration tests", 0.0),
    ("N[C@@H]1CCCCN1.[Cl][Pt][Cl]", "CCRIS mutagenicity, Ames/micronucleus/aberration tests", 1.0),
    ("N[C@@H](CS/C=C/CCl)C(=O)O", "CCRIS mutagenicity, Ames/micronucleus/aberration tests", 0.0),
    ("CN1CCNCC1", "CCRIS mutagenicity, Ames/micronucleus/aberration tests", 0.0),
    ("CCCOC(C(=O)OC1CCN(C)CC1)(c1ccccc1)c1ccccc1", "CCRIS mutagenicity, Ames/micronucleus/aberration tests", 0.0),
    ("C[C@H]1SC[C@@H](C(=O)N[C@@H](Cc2cnc[nH]2)C(=O)N2CCC[C@H]2C(N)=O)NC1=O", "CCRIS mutagenicity, Ames/micronucleus/aberration tests", 0.0),
    ("COc1cccc2c1C1(C)OOC1(C)O2 (centres undefined)", "CCRIS mutagenicity, Ames/micronucleus/aberration tests", 1.0),
    ("COC(=O)c1ccc(C(=O)OC)cc1", "CCRIS mutagenicity, Ames/micronucleus/aberration tests", 0.0),
    ("CC(CO)[N+](=O)[O-] (centres undefined)", "CCRIS mutagenicity, Ames/micronucleus/aberration tests", 0.0),
    ("OCc1ccc(-c2nccc3c2[nH]c2ccccc23)o1", "CCRIS mutagenicity, Ames/micronucleus/aberration tests", 1.0),
    ("Nc1ccc(NC(=O)c2ccc(N)cc2)cc1", "CCRIS mutagenicity, Ames/micronucleus/aberration tests", 0.0),
    ("ClC[C@@H]1CO1", "CCRIS mutagenicity, Ames/micronucleus/aberration tests", 1.0),
    ("COCCOCCOC", "CCRIS mutagenicity, Ames/micronucleus/aberration tests", 0.0),
    ("CCCCCCCOc1ccccc1NC(=O)OC(C)CN(CC)CC (centres undefined)", "CCRIS mutagenicity, Ames/micronucleus/aberration tests", 0.0),
    ("Cc1cc(N=Nc2ccccc2C)ccc1N", "CCRIS mutagenicity, Ames/micronucleus/aberration tests", 0.0),
    ("Oc1cc(Cl)c(Cl)c(Cl)c1Cl", "CCRIS mutagenicity, Ames/micronucleus/aberration tests", 0.0),
    ("NC(=O)c1ccccc1", "CCRIS mutagenicity, Ames/micronucleus/aberration tests", 0.0),
    ("COC(=O)c1oc(N(OC(C)=O)C(C)=O)c(-c2ccccc2)c1-c1ccccc1", "CCRIS mutagenicity, Ames/micronucleus/aberration tests", 0.0),
    ("NCCS", "CCRIS mutagenicity, Ames/micronucleus/aberration tests", 0.0),
    ("OC/C(Br)=C(\\Br)CO", "CCRIS mutagenicity, Ames/micronucleus/aberration tests", 0.0),
]

Origin of the recorded values: PubChem BioAssay AID1259407
